# Tested Target: UniProt:P07477
Measured Metric: IC50 (nM)
Your answer should be a plain number; it is taken to be in nM.

- [2H]C([2H])([2H])n1ncc2c1-c1cccc(c1)[C@@H](n1cnc(-c3cc(Cl)ccc3-n3cc(Cl)nn3)cc1=O)CCC[C@@H](C)C(=O)N2 [Comparative compound 2, reference compound]: 83.1

Turning to the following compound.
In: Output reported IC50 of the compound [2H]C([2H])([2H])n1ncc2c1-c1cc(F)cc(c1)[C@@H](n1cnc(-c3cc(Cl)ccc3-n3cc(Cl)nn3)cc1=O)CCC[C@@H](C)C(=O)N2 [Comparative compound 3, reference compound] on UniProt:P07477.
Out: 110

* * *

# Assay Details: Pharmacokinetic experiment in rats (iv and PO)
# Experimental Conditions: male, Sprague-Dawley (SD), rat, plasma, 5 mg/kg
Measured Metric: bioavailability (%)
Your answer should be a plain number; it is taken to be in %.

Some entries whose results are on file:
* [2H]C([2H])([2H])n1ncc2c1-c1cc(F)c(F)c(c1)[C@@H](n1cnc(-c3c(-n4cc(Cl)nn4)ccc(Cl)c3F)cc1=O)CCC[C@@H](C)C(=O)N2 [Compound 3] | 15.7
* [2H]C([2H])([2H])n1ncc2c1-c1cc(F)c(F)c(c1)[C@@H](n1cnc(-c3c(-n4cc(C(F)(F)F)nn4)ccc(Cl)c3F)cc1=O)CCC[C@@H](C)C(=O)N2 [Compound 4] | 19
* [2H]C([2H])([2H])n1ncc2c1-c1cc(cc(F)c1F)[C@@H](n1cnc(-c3cc(Cl)ccc3-n3cc(C(F)(F)F)nn3)cc1=O)CCC[C@@H](C)C(=O)N2 [Compound 18] | 21.9
* [2H]C([2H])([2H])n1ncc2c1-c1cc(cc(F)c1F)[C@@H](n1cnc(-c3c(-n4cc(C(F)(F)F)nn4)ccc(Cl)c3F)cc1=O)CCC[C@@H](C)C(=O)N2 [Compound 16] | 44.5

In: Identify measured bioavailability corresponding to [2H]C([2H])([2H])n1ncc2c1-c1cc(cc(F)c1F)[C@@H](n1cnc(-c3cc(Cl)ccc3-n3cc(Cl)nn3)cc1=O)CCC[C@@H](C)C(=O)N2 [Compound 17]
Out: 59.6

In: Identify measured bioavailability corresponding to [2H]C([2H])([2H])n1ncc2c1-c1cc(F)c(F)c(c1)[C@@H](n1ncc(-c3c(-n4cc(C(F)(F)F)nn4)ccc(Cl)c3F)c(Cl)c1=O)CCC[C@@H](C)C(=O)N2 [Compound 6]
Out: 14.1

In: Identify measured bioavailability corresponding to C[C@@H]1CCC[C@H](n2cnc(-c3c(-n4cc(C(F)(F)F)nn4)ccc(Cl)c3F)cc2=O)c2cc(cc(F)c2F)-c2c(cnn2C(F)F)NC1=O [Compound 11]
Out: 21.6

* * *

# Test system: Pooled human plasma
# Assay Details: In vitro anticoagulant effect in human plasma (aPTT, EC1.5x)
# Type: biochemical
# Experimental Conditions: 37 °C for 10 minutes
Measured Metric: Human Plasma APTT 1.5x
Dear colleague, please send the value followed by its unit.

Some entries whose results are on file:
• [2H]C([2H])([2H])n1ncc2c1-c1cc(F)c(F)c(c1)[C@@H](n1cnc(-c3c(-n4cc(C(F)(F)F)nn4)ccc(Cl)c3F)cc1=O)CCC[C@@H](C)C(=O)N2 [Compound 4] = 0.20 µM
• [2H]C([2H])([2H])n1ncc2c1-c1cc(F)c(F)c(c1)[C@@H](n1ncc(-c3c(-n4cc(C(F)(F)F)nn4)ccc(Cl)c3F)c(Cl)c1=O)CCC[C@@H](C)C(=O)N2 [Compound 6] = 0.43 µM
• [2H]C([2H])([2H])n1ncc2c1-c1cc(F)c(F)c(c1)[C@@H](n1ccc(-c3cc(Cl)ccc3-n3cc(C(F)F)nn3)cc1=O)CCC[C@@H](C)C(=O)N2 [Compound 10] = 0.20 µM

In: Identify measured Human Plasma APTT 1.5x corresponding to [2H]C([2H])([2H])n1ncc2c1-c1cc(cc(F)c1F)[C@@H](n1cnc(-c3c(-n4cc(C(F)(F)F)nn4)ccc(Cl)c3F)cc1=O)CCC[C@@H](C)C(=O)N2 [Compound 16]
Out: 0.31 µM

In: Identify measured Human Plasma APTT 1.5x corresponding to [2H]C([2H])([2H])n1ncc2c1-c1cc(F)c(F)c(c1)[C@@H](n1ncc(-c3cc(Cl)ccc3-n3cc(C(F)(F)F)nn3)cc1=O)CCC[C@@H](C)C(=O)N2 [Compound 5]
Out: 0.83 µM

These measurements were taken from patent EP4737457A1.
